- target or system: Mast/stem cell growth factor receptor Kit (Homo sapiens)
- assay protocol: Inhibition of ATP-activated recombinant human N-terminal 6x-His-tagged c-KIT (547 to 935 residues)/(694 to 753 residues deletion) expressed in baculovirus infected Sf9 insect cells assessed as decrease in poly (Glu,Tyr) 4:1 phosphorylation incubated for 30 mins followed by ATP addition and measured after 30 mins by Kinase Glo based luminescence assay
readout: pIC50
Note on pIC50: it is the negative log10 of concentration, concentration in mol/L.

Fill in the blank: the reported pIC50 of `CCc1cc(NC(=O)Nc2ccc(-c3cnc(Nc4cc(N5CCN(CC)CC5)ncn4)s3)cc2)no1` is ____.
7.04

----------
- target or system: Mast/stem cell growth factor receptor Kit (Homo sapiens, UniProt P10721, N822K/V560G)
- Sequence (P10721 26-976 V560G/N822K limits assumed): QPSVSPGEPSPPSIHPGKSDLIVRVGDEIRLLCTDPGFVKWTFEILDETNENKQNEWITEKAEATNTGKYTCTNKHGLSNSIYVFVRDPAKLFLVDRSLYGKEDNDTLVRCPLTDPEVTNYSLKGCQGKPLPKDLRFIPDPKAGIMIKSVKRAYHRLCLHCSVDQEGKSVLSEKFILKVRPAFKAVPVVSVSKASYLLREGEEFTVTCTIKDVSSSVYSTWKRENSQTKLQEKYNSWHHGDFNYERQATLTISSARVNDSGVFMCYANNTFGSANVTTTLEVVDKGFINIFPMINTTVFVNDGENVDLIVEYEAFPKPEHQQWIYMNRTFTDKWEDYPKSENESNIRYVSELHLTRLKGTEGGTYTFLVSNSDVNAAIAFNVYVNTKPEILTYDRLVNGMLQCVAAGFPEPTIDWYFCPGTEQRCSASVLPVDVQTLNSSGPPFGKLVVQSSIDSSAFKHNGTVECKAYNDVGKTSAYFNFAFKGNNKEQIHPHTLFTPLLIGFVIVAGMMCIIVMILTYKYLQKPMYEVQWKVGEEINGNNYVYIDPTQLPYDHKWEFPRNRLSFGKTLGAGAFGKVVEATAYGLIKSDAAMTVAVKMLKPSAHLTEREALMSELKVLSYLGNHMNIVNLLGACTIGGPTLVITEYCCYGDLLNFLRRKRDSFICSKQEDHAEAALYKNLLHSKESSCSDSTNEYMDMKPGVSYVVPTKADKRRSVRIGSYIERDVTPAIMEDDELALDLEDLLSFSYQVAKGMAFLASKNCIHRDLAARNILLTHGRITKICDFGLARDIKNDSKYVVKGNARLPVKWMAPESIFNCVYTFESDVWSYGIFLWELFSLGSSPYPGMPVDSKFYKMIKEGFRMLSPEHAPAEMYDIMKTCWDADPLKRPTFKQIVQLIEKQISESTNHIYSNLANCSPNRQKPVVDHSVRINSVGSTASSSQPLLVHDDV
- assay protocol: Inhibition of human c-KIT A loop exon 11/17 V560G/N822K double mutant using poly (Glu,Tyr) 4:1 as substrate in presence of 33P-gamma-ATP by hotspot kinase assay
readout: IC50 (pM)
Value expressed in pM; do not type the unit.

GET /values?readout=IC50&item= `CCc1cc(NC(=O)Nc2ccc(-c3cnc(Nc4cc(N5CCN(CC)CC5)ncn4)s3)cc2)no1`
180

----------
- assay protocol: Antiproliferative activity against human Detroit 551 assessed as reduction in cell viability after 72 hrs by MTS assay
- Assay type: cell-based
- assay conditions: Detroit 551 cells
readout: GI50 at 72 h

So what's the measured GI50 at 72 h for this one? `CCc1cc(NC(=O)Nc2ccc(-c3cnc(Nc4cc(N5CCN(CC)CC5)ncn4)s3)cc2)no1`
> 10 µM

----------
- target or system: Mast/stem cell growth factor receptor Kit (Homo sapiens, UniProt P10721)
- assay protocol: Inhibition of unactivated recombinant human N-terminal 6x-His-tagged c-KIT (547 to 935 residues)/(694 to 753 residues deletion) expressed in baculovirus infected Sf9 insect cells assessed as decrease in poly (Glu,Tyr) 4:1 phosphorylation incubated for 30 mins followed by ATP addition and measured after 120 mins by Kinase Glo based luminescence assay
readout: IC50 (nM)
Write the answer as a number in nM, unit excluded.

Param readout = IC50; param system = Mast/stem cell growth factor receptor Kit (Homo sapiens, UniProt P10721); param query = `CCc1cc(NC(=O)Nc2ccc(-c3cnc(Nc4cc(N5CCN(CC)CC5)ncn4)s3)cc2)no1` ; response: value
69

----------
- target or system: Mast/stem cell growth factor receptor Kit (Homo sapiens, UniProt P10721, A829P)
- Sequence (P10721 26-976 A829P limits assumed): as the sequence (P10721 26-976 V560G/N822K limits assumed) above, with G535V, K797N, A804P counted along it
- assay protocol: Inhibition of human c-KIT A loop exon 18 A829P single mutant using poly (Glu,Tyr) 4:1 as substrate in presence of 33P-gamma-ATP by hotspot kinase assay
readout: pIC50
Please report pIC50 as the negative decimal logarithm of the molar concentration, giving only the number.

Suppose we examine the molecule `CCc1cc(NC(=O)Nc2ccc(-c3cnc(Nc4cc(N5CCN(CC)CC5)ncn4)s3)cc2)no1` ; what pIC50 value has been reported?
9.05

----------
- target or system: Mast/stem cell growth factor receptor Kit (Homo sapiens, UniProt P10721, D816V)
- Sequence (P10721 26-976 D816V limits assumed): as the sequence (P10721 26-976 V560G/N822K limits assumed) above, with G535V, D791V, K797N counted along it
- assay protocol: Inhibition of human c-KIT A loop exon 17 D816V single mutant using poly (Glu,Tyr) 4:1 as substrate in presence of 33P-gamma-ATP by hotspot kinase assay
readout: IC50 (nM)
Answer format: numeric, nM implied, no suffix.

Request the reported IC50 associated with `CCc1cc(NC(=O)Nc2ccc(-c3cnc(Nc4cc(N5CCN(CC)CC5)ncn4)s3)cc2)no1`
8.56

----------
- target or system: Mast/stem cell growth factor receptor Kit (Homo sapiens, UniProt P10721, V560G)
- Sequence (P10721 26-976 V560G limits assumed): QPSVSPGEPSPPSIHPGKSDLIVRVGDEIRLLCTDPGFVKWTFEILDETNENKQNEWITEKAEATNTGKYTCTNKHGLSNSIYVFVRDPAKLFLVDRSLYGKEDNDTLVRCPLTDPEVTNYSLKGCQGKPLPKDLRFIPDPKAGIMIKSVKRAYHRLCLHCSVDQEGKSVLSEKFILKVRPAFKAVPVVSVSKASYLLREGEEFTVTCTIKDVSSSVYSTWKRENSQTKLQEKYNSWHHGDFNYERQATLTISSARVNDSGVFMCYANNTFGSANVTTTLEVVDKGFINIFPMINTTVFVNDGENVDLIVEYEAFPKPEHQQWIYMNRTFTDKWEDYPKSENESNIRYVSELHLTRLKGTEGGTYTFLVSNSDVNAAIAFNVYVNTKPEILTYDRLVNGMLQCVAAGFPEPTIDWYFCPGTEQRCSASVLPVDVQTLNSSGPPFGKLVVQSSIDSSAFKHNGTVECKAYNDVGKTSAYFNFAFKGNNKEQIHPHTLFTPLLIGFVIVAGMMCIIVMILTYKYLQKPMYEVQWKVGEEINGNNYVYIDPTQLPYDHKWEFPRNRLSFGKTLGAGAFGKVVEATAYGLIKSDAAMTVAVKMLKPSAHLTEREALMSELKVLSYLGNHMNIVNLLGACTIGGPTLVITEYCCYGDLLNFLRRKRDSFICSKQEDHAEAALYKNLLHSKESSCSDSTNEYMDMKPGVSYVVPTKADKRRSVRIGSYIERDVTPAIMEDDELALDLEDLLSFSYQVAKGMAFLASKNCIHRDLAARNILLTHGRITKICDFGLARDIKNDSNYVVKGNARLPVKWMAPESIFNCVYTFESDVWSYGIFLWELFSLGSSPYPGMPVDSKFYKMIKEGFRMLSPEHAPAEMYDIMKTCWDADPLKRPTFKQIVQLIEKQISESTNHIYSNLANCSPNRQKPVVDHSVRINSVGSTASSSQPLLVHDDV
- assay protocol: Inhibition of human c-KIT JM domain exon 11 V560G single mutant using poly (Glu,Tyr) 4:1 as substrate in presence of 33P-gamma-ATP by hotspot kinase assay
readout: IC50 (nM)
Give a bare numeral; the unit nM is implied.

// query IC50 value for entry `CCc1cc(NC(=O)Nc2ccc(-c3cnc(Nc4cc(N5CCN(CC)CC5)ncn4)s3)cc2)no1`
0.98

----------
- assay protocol: Plasma clearance in ICR mouse at 2 mg/kg, iv administered as single dose measured up to 24 hrs by LC-MS/MS analysis
- Assay type: ADME, organism-based
readout: clearance (mL/min/kg)
Write down the numeric answer in mL/min/kg and omit the unit.

Can you share its clearance? I mean this molecule: `CCc1cc(NC(=O)Nc2ccc(-c3cnc(Nc4cc(N5CCN(CC)CC5)ncn4)s3)cc2)no1`
20.2

----------
- assay protocol: AUC in ICR mouse at 10 mg/kg, po administered as single dose measured up to 24 hrs by LC-MS/MS analysis
- Format: ADME, organism-based
- Design: dose 10 mg/kg, time < 24 hr, route oral
- assay conditions: in vivo
readout: AUC at 24 h
Give the number first and the unit second.

Endpoint output: AUC at 24 h of `CCc1cc(NC(=O)Nc2ccc(-c3cnc(Nc4cc(N5CCN(CC)CC5)ncn4)s3)cc2)no1` . Value?
2800 ng·h/mL

----------
- target or system: Mast/stem cell growth factor receptor Kit (Homo sapiens, UniProt P10721, D816V/V560G)
- Sequence (P10721 26-976 V560G/D816V limits assumed): as the sequence (P10721 26-976 V560G/N822K limits assumed) above, with D791V, K797N counted along it
- assay protocol: Inhibition of human c-KIT A loop exon 11/17 V560G/D816V double mutant using poly (Glu,Tyr) 4:1 as substrate in presence of 33P-gamma-ATP by hotspot kinase assay
readout: pIC50
Units for pIC50: none; it is -log10 of a concentration expressed in mol/L.

Query: pIC50; subject: `CCc1cc(NC(=O)Nc2ccc(-c3cnc(Nc4cc(N5CCN(CC)CC5)ncn4)s3)cc2)no1`
8.03

----------
- target or system: Mast/stem cell growth factor receptor Kit (Homo sapiens, UniProt P10721, V559D/V654A)
- Sequence (P10721 26-976 V559D/V654A limits assumed): as the sequence (P10721 26-976 V560G/N822K limits assumed) above, with V534D, G535V, V629A, K797N counted along it
- assay protocol: Inhibition of human c-KIT […] V559D/V654A double mutant using poly (Glu,Tyr) 4:1 as substrate in presence of 33P-gamma-ATP by hotspot kinase assay
readout: IC50 (µM)
Kindly provide the numeric value in µM only, without the unit symbol.

What does the data say about its IC50? Entry: `CCc1cc(NC(=O)Nc2ccc(-c3cnc(Nc4cc(N5CCN(CC)CC5)ncn4)s3)cc2)no1`
0.102

----------
- target or system: Mast/stem cell growth factor receptor Kit (Homo sapiens, UniProt P10721, K642E)
- Sequence (P10721 26-976 K642E limits assumed): as the sequence (P10721 26-976 V560G/N822K limits assumed) above, with G535V, K617E, K797N counted along it
- assay protocol: Inhibition of human c-KIT ATP binding domain exon 13 K642E single mutant using poly (Glu,Tyr) 4:1 as substrate in presence of 33P-gamma-ATP by hotspot kinase assay
readout: pIC50
Please report pIC50 as the negative decimal logarithm of the molar concentration, giving only the number.

# input compound: `CCc1cc(NC(=O)Nc2ccc(-c3cnc(Nc4cc(N5CCN(CC)CC5)ncn4)s3)cc2)no1` ; wanted: its pIC50
8.86

----------
- target or system: Mast/stem cell growth factor receptor Kit (Homo sapiens, UniProt P10721, T670I)
- Sequence (P10721 26-976 T670I limits assumed): as the sequence (P10721 26-976 V560G limits assumed) above, with G535V, T645I counted along it
- assay protocol: Inhibition of human c-KIT ATP binding domain exon 14 T670I single mutant using poly (Glu,Tyr) 4:1 as substrate in presence of 33P-gamma-ATP by hotspot kinase assay
readout: pIC50
// pIC50: -log10(molar conc.)

Recorded pIC50 of `CCc1cc(NC(=O)Nc2ccc(-c3cnc(Nc4cc(N5CCN(CC)CC5)ncn4)s3)cc2)no1` , please.
8.78

----------
- Tested on: GISTT1
- assay protocol: Antiproliferative activity against human GISTT1 cells harboring heterozygous V560-Y578 del mutation assessed as reduction in cell viability by methylene blue staining based assay
- Assay type: functional
Consider the following compounds; for each one, report its GI50.
Numeric answer only, unit µM assumed.

Need GI50, item `CCc1cc(NC(=O)Nc2ccc(-c3cnc(Nc4cc(N5CCN(CCO)CC5)ncn4)s3)cc2)no1`
0.0033

Param item = `CCN1CCN(c2cc(Nc3ncc(-c4ccc(NC(N)=O)cc4)s3)ncn2)CC1` ; retrieve measured GI50.
0.086

Name the reported GI50 value associated with the compound `CCc1cc(NC(=O)Nc2ccc(-c3cnc(Nc4nc(C)nc(N5CCN(CC)CC5)n4)s3)cc2)no1`
0.013

Which GI50 value belongs to `CCc1cc(NC(=O)Nc2ccc(-c3cnc(Nc4cc(N5CCN(CC)CC5)ncn4)s3)cc2)no1` ?
0.0022

----------
- target or system: Mast/stem cell growth factor receptor Kit (Homo sapiens)
- assay protocol: Inhibition of recombinant human N-terminal 6x-His-tagged c-KIT (547 to 935 residues)/(694 to 753 residues deletion) expressed in baculovirus infected Sf9 insect cells assessed as decrease in poly (Glu,Tyr) 4:1 phosphorylation measured after 150 mins in presence of ATP by ADP-glo based luminescence assay
readout: pIC50
Remember, pIC50 is on a log scale: it is -log10 of the molar concentration.

Data request, read-out pIC50, for `CCc1cc(NC(=O)Nc2ccc(-c3cnc(Nc4cc(N5CCN(CCO)CC5)ncn4)s3)cc2)no1`
7.15

I am curious: what pIC50 value has been reported for `CCc1cc(NC(=O)NCCCc2cnc(Nc3cc(N4CCN(CC)CC4)nc(C)n3)s2)no1` ?
7.30

Request the reported pIC50 associated with `CCc1cc(NC(=O)N2CC=C(c3cnc(Nc4cc(N5CCN(CC)CC5)nc(C)n4)s3)CC2)no1`
7.09

Value lookup for pIC50; key = `CCc1cc(NC(=O)Nc2ccc(-c3cnc(Nc4cc(N5CCN(CC)CC5)ncn4)s3)cn2)no1`
7.37

What value of measured pIC50 is listed for `CCN1CCN(c2cc(Nc3ncc(-c4ccc(NC(N)=O)cc4)s3)ncn2)CC1` ?
7.01

# lookup: pIC50 of `CCN1CCN(c2cc(Nc3ncc(-c4ccc(NS(=O)(=O)c5ccccc5)cc4)s3)nc(C)n2)CC1`
7.27
